Conditions: 318.15 K, Ring tensiometer
Kindly supply the reported surface tension liquid-gas values for the records listed here.
Numbers only, in mN/m.

Field: example entries. Status: answers known.
{"Molecule": "O", "surface tension liquid-gas, mN/m": 68.4}
{"Molecule": "CCCCn1cc[n+](C)c1.F[B-](F)(F)F [1-butyl-3-methylimidazolium tetrafluoroborate]", "surface tension liquid-gas, mN/m": 42.95}
{"Molecule": "CCCCCCn1cc[n+](C)c1.F[B-](F)(F)F [1-hexyl-3-methylimidazolium tetrafluoroborate]", "surface tension liquid-gas, mN/m": 35.92}

stdin: Indicate the recorded surface tension liquid-gas value for this molecule: CCn1cc[n+](C)c1.F[B-](F)(F)F [1-ethyl-3-methylimidazolium tetrafluoroborate]
stdout: 51.25
